Hello, the source for this data is paper PMC10247784, in case you need it.

For each of the compounds below, state its RLU, fluorescence trace.
target: human TAS2R4 (Homo sapiens); construct: expressed in transfected cells; host or cells: HEK293T-Gα16gust44; assay: Calcium imaging assay (FLIPR), HEK293T-Gα16gust44 cells transfected with human TAS2R4; assay type: cell-based; details: Time (s) 155.547; note: test concentration or dose not given here
Sequence (Q9NYW5 whole entry): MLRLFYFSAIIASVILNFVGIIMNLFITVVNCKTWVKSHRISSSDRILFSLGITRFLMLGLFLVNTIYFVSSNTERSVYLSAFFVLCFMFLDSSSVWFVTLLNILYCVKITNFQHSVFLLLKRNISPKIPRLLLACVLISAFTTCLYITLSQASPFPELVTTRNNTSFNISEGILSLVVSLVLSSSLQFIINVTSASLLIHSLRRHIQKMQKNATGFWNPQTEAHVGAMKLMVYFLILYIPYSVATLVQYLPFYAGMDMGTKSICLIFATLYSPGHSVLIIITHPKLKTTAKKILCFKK
Numbers only, in RLU.

The following compounds have reported results that may help.
Query: Bench note: what RLU, fluorescence trace did `C[C@H](CCC(=O)O)[C@H]1CC[C@H]2[C@@H]3CC[C@@H]4C[C@H](O)CC[C@]4(C)[C@H]3C[C@H](O)[C@]12C` show?
Response: 355.055

Query: Bench note: what RLU, fluorescence trace did `C[C@H](CCC(=O)NCC(=O)O)[C@H]1CC[C@H]2[C@@H]3[C@H](O)C[C@@H]4C[C@H](O)CC[C@]4(C)[C@H]3C[C@H](O)[C@]12C` show?
Response: 318.726

API: the following record is the query input.
Query: Bench note: what RLU, fluorescence trace did `C[C@H](CCC(=O)O)[C@H]1CC[C@H]2[C@@H]3[C@H](O)C[C@@H]4C[C@H](O)CC[C@]4(C)[C@H]3C[C@H](O)[C@]12C` show?
Response: 351.767

---

molecular target: human TAS2R1 (Homo sapiens); construct: expressed in transfected cells; host or cells: HEK293T-Gα16gust44; assay: Calcium imaging assay (FLIPR), HEK293T-Gα16gust44 cells transfected with human TAS2R1; assay type: cell-based; conditions: calcium trace, sheet TAS2R1; Time 347.562 s
Observation Type: RLU (RLU)
Numbers only, in RLU.

The following compounds have reported results that may help.
Query: Bench note: what RLU did `C[C@H](CCC(=O)O)[C@H]1CC[C@H]2[C@@H]3CC[C@@H]4C[C@H](O)CC[C@]4(C)[C@H]3CC[C@]12C` show?
Response: 199.834

Query: Bench note: what RLU did `C[C@H](CCC(=O)O)[C@H]1CC[C@H]2[C@@H]3[C@H](O)C[C@@H]4C[C@H](O)CC[C@]4(C)[C@H]3CC[C@]12C` show?
Response: 124.739

Count: 2. Required value per item: RLU.
1. C[C@H](CCC(=O)O)[C@H]1CC[C@H]2[C@@H]3[C@@H](O)C[C@@H]4C[C@H](O)CC[C@]4(C)[C@H]3CC[C@]12C
2. C[C@H](CCC(=O)O)[C@H]1CC[C@H]2[C@@H]3[C@H](O)C[C@@H]4C[C@H](O)CC[C@]4(C)[C@H]3C[C@H](O)[C@]12C

Response:
[-20.1556, -51.1709]

---

Target: human TAS2R1 (Homo sapiens)
Construct: expressed in transfected cells; host or cells: HEK293T-Gα16gust44
Sequence (Q9NYW7 1-299): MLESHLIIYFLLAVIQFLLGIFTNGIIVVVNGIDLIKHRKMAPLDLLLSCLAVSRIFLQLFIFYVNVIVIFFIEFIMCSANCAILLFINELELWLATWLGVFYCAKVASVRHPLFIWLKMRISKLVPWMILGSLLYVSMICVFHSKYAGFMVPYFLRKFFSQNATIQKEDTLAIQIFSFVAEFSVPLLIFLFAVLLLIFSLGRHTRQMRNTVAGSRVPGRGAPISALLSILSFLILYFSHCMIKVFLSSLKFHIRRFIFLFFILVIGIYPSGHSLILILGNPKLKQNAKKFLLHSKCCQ
Experiment: Calcium imaging assay (FLIPR), HEK293T-Gα16gust44 cells transfected with human TAS2R1
Format: cell-based
Settings: Time 128.781 s
For each of the compounds below, state its RLU.
One number for each entry, in RLU.

Query: Bench note: what RLU did `C[C@H](CCC(=O)NCCS(=O)(=O)O)[C@H]1CC[C@H]2[C@@H]3CC[C@@H]4C[C@H](O)CC[C@]4(C)[C@H]3CC[C@]12C` show?
Response: 435.021

Query: Bench note: what RLU did `C[C@H](CCC(=O)NCCS(=O)(=O)O)[C@H]1CC[C@H]2[C@@H]3[C@H](O)C[C@@H]4C[C@H](O)CC[C@]4(C)[C@H]3C[C@H](O)[C@]12C` show?
Response: 264.252

Query: Bench note: what RLU did `C[C@H](CCC(=O)O)[C@H]1CC[C@H]2[C@@H]3CC[C@@H]4C[C@H](O)CC[C@]4(C)[C@H]3C[C@H](O)[C@]12C` show?
Response: 380.58

API: the following record is the query input.
Query: Bench note: what RLU did `C[C@H](CCC(=O)NCC(=O)O)[C@H]1CC[C@H]2[C@@H]3[C@H](O)C[C@@H]4C[C@H](O)CC[C@]4(C)[C@H]3C[C@H](O)[C@]12C` show?
Response: 400.74

---

target: mouse Tas2r144 (Mus musculus); construct: expressed in transfected cells; host or cells: HEK293T-Gα16gust44; assay: Calcium imaging assay (FLIPR), HEK293T-Gα16gust44 cells transfected with mouse Tas2r144; format: cell-based; conditions: Time 4 s
Sequence (Q7TQB8 whole entry): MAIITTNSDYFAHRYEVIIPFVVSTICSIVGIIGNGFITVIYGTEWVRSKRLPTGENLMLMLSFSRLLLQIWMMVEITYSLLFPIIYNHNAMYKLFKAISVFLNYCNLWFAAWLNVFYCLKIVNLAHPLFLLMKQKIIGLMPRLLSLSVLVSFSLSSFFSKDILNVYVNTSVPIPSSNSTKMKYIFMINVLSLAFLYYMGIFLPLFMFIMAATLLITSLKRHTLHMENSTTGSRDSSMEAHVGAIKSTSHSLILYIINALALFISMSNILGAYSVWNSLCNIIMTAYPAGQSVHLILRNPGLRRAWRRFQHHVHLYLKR
Observation Type: RLU (RLU)
Answers are plain numbers, in RLU.

Count: 4. Required value per item: RLU.
1. C[C@H](CCC(=O)NCCS(=O)(=O)O)[C@H]1CC[C@H]2[C@@H]3CC[C@@H]4C[C@H](O)CC[C@]4(C)[C@H]3CC[C@]12C
2. C[C@H](CCC(=O)NCCS(=O)(=O)O)[C@H]1CC[C@H]2[C@@H]3[C@H](O)C[C@@H]4C[C@H](O)CC[C@]4(C)[C@H]3C[C@H](O)[C@]12C
3. C[C@H](CCC(=O)O)[C@H]1CC[C@H]2[C@@H]3[C@H](O)C[C@@H]4C[C@H](O)CC[C@]4(C)[C@H]3C[C@H](O)[C@]12C
4. C[C@H](CCC(=O)NCC(=O)O)[C@H]1CC[C@H]2[C@@H]3[C@H](O)C[C@@H]4C[C@H](O)CC[C@]4(C)[C@H]3C[C@H](O)[C@]12C

Response:
1: 0.2718; 2: -2.315; 3: 5.384; 4: -43.6447

---

Molecular target: human TAS2R1 (Homo sapiens)
Construct: expressed in transfected cells; host or cells: HEK293T-Gα16gust44
Assay: Calcium imaging assay (FLIPR), HEK293T-Gα16gust44 cells transfected with human TAS2R1
Assay type: cell-based
Conditions: Time 128.796 s
Protocol: This set of bile acids was chosen because of their commercial availability in high purities, their diversity within the class of bile acids and their previous detection and quantitation in human blood. Stock solutions were prepared in DMSO. […] Measured data were negative control corrected by subtracting the signal of the mock-transfected cells and exported to Microsoft Excel using the FLIPR software ScreenWorks 4.2. […]
Observation Type: RLU (RLU)
Answers are plain numbers, in RLU.

Query: Bench note: what RLU did C[C@H](CCC(=O)O)[C@H]1CC[C@H]2[C@@H]3[C@H](O)C[C@@H]4C[C@H](O)CC[C@]4(C)[C@H]3CC[C@]12C [Chenodeoxycholic Acid, chenodeoxycholic acid] show?
Response: 551.854

Count: 3. Required value per item: RLU.
1. C[C@H](CCC(=O)O)[C@H]1CC[C@H]2[C@@H]3CC[C@@H]4C[C@H](O)CC[C@]4(C)[C@H]3CC[C@]12C [Lithocholic Acid, lithocholic acid]
2. C[C@H](CCC(=O)O)[C@H]1CC[C@H]2[C@@H]3[C@H](O)C[C@@H]4C[C@H](O)CC[C@]4(C)[C@H]3C[C@H](O)[C@]12C [Cholic Acid, cholic acid]
3. C[C@H](CCC(=O)O)[C@H]1CC[C@H]2[C@@H]3[C@@H](O)C[C@@H]4C[C@H](O)CC[C@]4(C)[C@H]3CC[C@]12C [Ursodeoxycholic Acid, ursodeoxycholic acid]

Response:
1: 833.006; 2: 427.776; 3: 271.359

---

biological target: human TAS2R14 (Homo sapiens, UniProt Q9NYV8); construct: expressed in transfected cells; host or cells: HEK293T-Gα16gust44; experiment: Calcium imaging assay (FLIPR), HEK293T-Gα16gust44 cells transfected with human TAS2R14; type: cell-based; conditions: TAS2R14 trace; Time (s) 149.578 (Taurocholic Acid 149.563, Chenodeoxycholic Acid 149.546)
Sequence (Q9NYV8 whole entry): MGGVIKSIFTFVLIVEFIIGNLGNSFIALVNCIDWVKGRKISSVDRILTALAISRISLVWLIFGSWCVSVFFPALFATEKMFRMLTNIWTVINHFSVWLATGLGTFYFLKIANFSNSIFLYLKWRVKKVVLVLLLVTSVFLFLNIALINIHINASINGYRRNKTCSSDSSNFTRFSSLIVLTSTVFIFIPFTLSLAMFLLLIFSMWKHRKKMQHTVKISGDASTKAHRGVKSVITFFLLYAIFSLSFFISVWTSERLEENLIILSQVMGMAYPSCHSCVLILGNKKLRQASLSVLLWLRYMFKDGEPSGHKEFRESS
For each of the compounds below, state its RLU.
Give bare numbers, in RLU.

The following compounds have reported results that may help.
Query: Bench note: what RLU did `C[C@H](CCC(=O)NCC(=O)O)[C@H]1CC[C@H]2[C@@H]3[C@H](O)C[C@@H]4C[C@H](O)CC[C@]4(C)[C@H]3C[C@H](O)[C@]12C` show?
Response: 827.247

Query: Bench note: what RLU did `C[C@H](CCC(=O)O)[C@H]1CC[C@H]2[C@@H]3[C@H](O)C[C@@H]4C[C@H](O)CC[C@]4(C)[C@H]3C[C@H](O)[C@]12C` show?
Response: 1235.83

Query: Bench note: what RLU did `C[C@H](CCC(=O)NCCS(=O)(=O)O)[C@H]1CC[C@H]2[C@@H]3CC[C@@H]4C[C@H](O)CC[C@]4(C)[C@H]3CC[C@]12C` show?
Response: 363.524

Query: Bench note: what RLU did `C[C@H](CCC(=O)NCCS(=O)(=O)O)[C@H]1CC[C@H]2[C@@H]3[C@H](O)C[C@@H]4C[C@H](O)CC[C@]4(C)[C@H]3C[C@H](O)[C@]12C` show?
Response: 998.739

API: the following record is the query input.
Query: Bench note: what RLU did `C[C@H](CCC(=O)O)[C@H]1CC[C@H]2[C@@H]3[C@H](O)C[C@@H]4C[C@H](O)CC[C@]4(C)[C@H]3CC[C@]12C` show?
Response: 382.743
